Biological target: CYP3A (Homo sapiens)
Sequence (P08684 2-503): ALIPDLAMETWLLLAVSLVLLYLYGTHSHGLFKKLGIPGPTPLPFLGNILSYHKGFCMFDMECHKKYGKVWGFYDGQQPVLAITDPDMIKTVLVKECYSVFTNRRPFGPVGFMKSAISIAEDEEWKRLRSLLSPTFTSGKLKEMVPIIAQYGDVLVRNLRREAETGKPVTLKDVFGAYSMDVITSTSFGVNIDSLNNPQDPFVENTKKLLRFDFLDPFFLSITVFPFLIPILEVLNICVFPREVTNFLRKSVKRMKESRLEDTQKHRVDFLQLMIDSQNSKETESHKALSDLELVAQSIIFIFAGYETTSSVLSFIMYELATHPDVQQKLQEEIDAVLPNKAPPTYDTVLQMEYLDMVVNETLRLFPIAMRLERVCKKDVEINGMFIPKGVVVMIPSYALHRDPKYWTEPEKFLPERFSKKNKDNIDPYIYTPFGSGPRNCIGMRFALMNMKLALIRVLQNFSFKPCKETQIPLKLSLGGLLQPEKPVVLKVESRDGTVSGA
Assay: CYP3A time-dependent inhibition in human liver microsomes (midazolam probe)
Details: pooled human liver microsomes, pH 7.4, probe midazolam (30 μM, 1'-hydroxymidazolam formation)
Readout type: pKi
Numbers only, as −log10 of the molar value.

-- ask Return reported pKi; argument: CC[C@H]1OC(=O)[C@H](C)C(=O)[C@H](C)[C@@H](O[C@@H]2O[C@H](C)C[C@H](N(C)C)[C@H]2O)[C@](C)(OC)C[C@@H](C)C(=O)[C@H](C)[C@H]2N(C3CN(Cc4c(O)cnc5cccnc45)C3)C(=O)O[C@]12C
-- reply 4.62
